# Test system: MDA-MB-231 breast
# procedure.summary: NCI-60 one-dose screen, 48 h
# condition: 10 µM unless noted
About 83,000 compounds went through this panel and 20% of them were active in at least one assay; those are over-represented in the sample as a whole. Activity calls are given as the source filed them. The calls were made as follows: active = growth percent below 10; inactive = the rest.
Outcome codes: active, inactive

> print(dat)
                                    compound      tested.target  assigned.class
 1  COc1cc(C2c3cc4c(cc3C(OC(=O)C[n+]3ccccc3)C3COC(=O)C23)OCO4)cc(OC)c1OC (configuration not stated)  MDA-MB-231 breast          active
 2           CCc1ccccc1-n1[nH]c(C)c(C=N)c1=O  MDA-MB-231 breast        inactive
 3  CC1OS(=O)OC1C (configuration not stated)  MDA-MB-231 breast        inactive
 4  O=C(c1ccc(Cl)cc1)C1C(c2ccccc2)C1[N+](=O)[O-] (configuration not stated)  MDA-MB-231 breast        inactive
 5                      COc1ccc2nccc(Cl)c2c1  MDA-MB-231 breast        inactive
 6  O=C(O)C(Cc1ccc(OS(=O)(=O)Cc2ccccc2)cc1)NS(=O)(=O)Cc1ccccc1 (configuration not stated)  MDA-MB-231 breast        inactive
 7                           COc1ccc(CCO)cc1  MDA-MB-231 breast        inactive
 8    CC(C)(C)OC(=O)c1ccc(NCc2cc(O)ccc2O)cc1  MDA-MB-231 breast          active
 9  CC(NC(=O)CCl)c1ccccc1 (configuration not stated)  MDA-MB-231 breast        inactive
10         Cn1c(-c2ccccc2)cc(=O)cc1-c1ccccc1  MDA-MB-231 breast        inactive
11   COc1ccc(-n2[nH]c3c(cnc4ccccc43)c2=O)cc1  MDA-MB-231 breast        inactive
12                 CC(=O)Nc1ccc2oc(=O)ccc2c1  MDA-MB-231 breast        inactive
13                      CCCCC/C(C)=N\NC(N)=S  MDA-MB-231 breast        inactive
14       Nc1c(Cl)cc2c(c1Br)C(=O)c1ccccc1C2=O  MDA-MB-231 breast        inactive
15  Clc1ccc2c(c1)N(C1CCCN(Cc3ccccc3)C1)c1ccccc1S2 (configuration not stated)  MDA-MB-231 breast        inactive
16                    O=C1c2cccnc2-c2ncccc21  MDA-MB-231 breast        inactive
17  O=P(O)(O)OC1C(OP(=O)(O)O)C(OP(=O)(O)O)C(OP(=O)(O)O)C(OP(=O)(O)O)C1OP(=O)(O)O.[Cu+2] (configuration not stated)  MDA-MB-231 breast        inactive
18                      CS(=O)(=O)c1nsc(N)n1  MDA-MB-231 breast        inactive
19  Nc1nc(-c2ccccn2)cc(-c2cc(-c3ccccn3)nc(N)n2)n1  MDA-MB-231 breast        inactive
20                  Cc1cc(Cl)nc(Nc2ccccc2)n1  MDA-MB-231 breast        inactive
21           CC(=O)Oc1cc(C)c(OC(C)=O)c(C)c1C  MDA-MB-231 breast        inactive
22          CC1=CC(=O)C=CC1=Nc1ccc(N(C)C)cc1  MDA-MB-231 breast        inactive
23           CC(=O)C[n+]1ccccc1Sc1ccc(Cl)cc1  MDA-MB-231 breast        inactive
24  O=C1c2ccccc2C(c2ccccc2)C1c1ccccc1 (configuration not stated)  MDA-MB-231 breast        inactive
25  COC(=O)c1nc(N)nc(C(=O)OC)c1C(=O)c1cccc2ccccc12  MDA-MB-231 breast        inactive
26  CC(=O)/C(N=Nc1ccc(S(=O)(=O)c2ccc(N=N/C(C(C)=O)=C(/C)O)cc2)cc1)=C(\C)O  MDA-MB-231 breast        inactive
27  Cc1cc(-c2ccc(N=Nc3c(C)nn(-c4ccc(S(=O)(=O)O)cc4)c3O)c(C)c2)ccc1N=Nc1ccc(O)c(C(=O)O)c1  MDA-MB-231 breast        inactive
28                               OCc1ccccc1F  MDA-MB-231 breast        inactive
29            O=[N+]([O-])c1ccc(N2CCN=N2)cc1  MDA-MB-231 breast        inactive
30  CCN(CC)CCO/N=C1\CC(c2ccc(OC)c(OC)c2)Oc2ccccc21 (configuration not stated)  MDA-MB-231 breast        inactive
31  COCCCNC1=C(C#N)C(=O)NC(c2cccs2)S1 (configuration not stated)  MDA-MB-231 breast        inactive
32                                 CCOC(C)=N  MDA-MB-231 breast        inactive
33  CC(C)=NOC(C)C(=O)O (configuration not stated)  MDA-MB-231 breast        inactive
34                    Cc1ccc(N)cc1S(=O)(=O)O  MDA-MB-231 breast        inactive
35  CN1C2C=CC(=O)C1C1C(=O)N(c3ccccc3)C(=O)C12 (configuration not stated)  MDA-MB-231 breast        inactive
36  O=C1C2=C(Nc3cc(Cl)ccc3N2)OC1c1c[nH]c2ccc(COc3ccccc3)cc12 (configuration not stated)  MDA-MB-231 breast        inactive
37                    ON=C(C1CCCCC1)C1CCCCC1  MDA-MB-231 breast        inactive
38  CCOP(C)(=O)/C(Cc1ccc(OC)c(OC)c1)=N\O (configuration not stated)  MDA-MB-231 breast        inactive
39                      NNc1ncnc2cccc(Cl)c12  MDA-MB-231 breast        inactive
40  COC(=O)c1nc(=S)[nH]c(C(=O)OC)c1C(=O)c1ccccc1  MDA-MB-231 breast        inactive
41  CN(C)CC(CN(C)C)C(O)c1ccccc1 (configuration not stated)  MDA-MB-231 breast        inactive
42  CCC(C)(O)CCC(C)(O)CC (configuration not stated)  MDA-MB-231 breast        inactive
43  O=[N+]([O-])c1ccc(N/N=C/C2CCCCCC2)c([N+](=O)[O-])c1  MDA-MB-231 breast        inactive
44                 C/C=C(/C(=O)NC(N)=O)C(C)C  MDA-MB-231 breast        inactive
45                          CCOC(=O)c1ccncc1  MDA-MB-231 breast        inactive
46  CC1CCC(=O)N1c1ccc(N)cc1 (configuration not stated)  MDA-MB-231 breast        inactive
47         O=[N+]([O-])c1cccc(N=Cc2ccccc2)c1  MDA-MB-231 breast        inactive
48                  CCC/C(=N/NC(N)=O)c1ccco1  MDA-MB-231 breast        inactive
49                         CC1(C)CC(=O)NC1=O  MDA-MB-231 breast        inactive
50                              OCCCc1ccccc1  MDA-MB-231 breast        inactive
51    O=C(c1ccncc1)c1c(Cc2ccccc2)ccc2ccccc12  MDA-MB-231 breast        inactive
52          CCCC(=O)OCC(COC(=O)CCC)OC(=O)CCC  MDA-MB-231 breast        inactive

---

# growth per entry
# System: OVCAR-5 ovarian
# procedure.summary: NCI-60 one-dose screen, 48 h (100 = growth as untreated, 0 = no growth, -100 = all killed)
# condition: 10 µM unless noted
Compounds without any hit were thinned out: in the full panel of roughly 83,000, 20% have a hit. The source made the active and inactive calls. Rule for the calls: active = growth percent below 10; inactive = the rest.
quantity.measured: growth

> print(dat)
                                    compound            result
 1            CC1=CC(=O)c2cccc(NC3=NCCO3)c21  95.2% (inactive)
 2  O=P(O)(O)OC1C(OP(=O)(O)O)C(OP(=O)(O)O)C(OP(=O)(O)O)C(OP(=O)(O)O)C1OP(=O)(O)O.[Cu+2] (configuration not stated)   155% (inactive)
 3  COC(=O)C(Cc1cn(C(C)=O)c2ccccc12)P(=O)(OC)OC (configuration not stated)   103% (inactive)
 4                   CCCC(=O)Oc1ccc2ccccc2c1   117% (inactive)
 5                   C=CCN1C(=O)c2ccccc2C1=O   102% (inactive)
 6                                 CCOC(C)=N   102% (inactive)
 7  O=[N+]([O-])c1ccc(N/N=C/C2CCCCCC2)c([N+](=O)[O-])c1  99.1% (inactive)
 8                        N#Cc1c[nH]n2ccnc12   107% (inactive)
 9    COC(=O)c1cc(C(=O)OC)cc([N+](=O)[O-])c1   106% (inactive)
10                  C/C=C/C(=O)OCCCCCCCCCCCC  99.2% (inactive)
11  CC1CC(O)CC(C)(C)C1.CC1CC(O)CC(C)(C)C1.CC1CC(O)CC(C)(C)C1.CC1CC(O)CC(C)(C)C1.[Ti] (configuration not stated)   114% (inactive)
12                           O=COCCCc1ccccc1   105% (inactive)
